system-name: HSD17B13 (Homo sapiens (Human), UniProt Q7Z5P4)
Sequence (Q7Z5P4 other isoform, or with tags, fused parts or gaps): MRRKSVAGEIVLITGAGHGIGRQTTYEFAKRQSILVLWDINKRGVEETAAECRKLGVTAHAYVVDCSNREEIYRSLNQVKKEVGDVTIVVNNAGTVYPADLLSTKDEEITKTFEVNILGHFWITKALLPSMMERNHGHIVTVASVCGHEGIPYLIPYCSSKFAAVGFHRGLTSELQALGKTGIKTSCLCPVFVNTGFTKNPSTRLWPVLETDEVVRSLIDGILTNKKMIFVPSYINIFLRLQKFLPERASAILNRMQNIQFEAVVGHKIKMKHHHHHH
protocol-text: HSD17B13 enzymatic inhibition assay (150 nM or 50 nM HSD17B13)
Assay type: biochemical
test-parameters: 50 nM HSD17B13; read-out: Inhibition of 50 nM of HSD17B13 IC50
pIC50: −log10 of the molar value.
experimental-endpoint: pIC50

1. O=C(NCc1ccc(Cl)cc1Oc1cccc(Cl)c1)c1ccc(C(F)(F)F)[nH]c1=O ... 5.50

P. Cc1ccc2c(c1)Oc1cc(C)ccc1C2NC(=O)c1cc(CN2CCNCC2)c(C(F)(F)F)[nH]c1=O
Q. Cc1ccc2c(c1)Oc1cc(C)ccc1C2NC(=O)c1cc(C2=CCCCC2)c(C(F)(F)F)[nH]c1=O [Compound 183]
R. Cc1cc(C(F)(F)F)[nH]c(=O)c1C(=O)NC(c1ccccc1)c1ccc(CC(F)(F)F)cc1 (stereo not shown)
Query: Sort the 3 compounds by pIC50; largest first, smallest last. Answer by naming the labels in the order asked.
Reply: Q, P, R

P. CC[C@H]1C[C@@H](NC(=O)c2ccc(C(F)(F)F)[nH]c2=O)c2cc(C)ccc2N1
Q. Nc1cccc2c1CCCC2NC(=O)c1ccc(C(F)(F)F)[nH]c1=O (stereo not shown)
R. O=C(NC1c2ccc(Cl)cc2Sc2cc(Cl)ccc21)c1ccc(C(F)(F)F)[nH]c1=O
S. Cc1ccc2c(c1)C(NC(=O)c1ccc(C(F)F)[nH]c1=O)c1ccccc1O2 (stereo not shown)
Query: Ordering: ascending pIC50. Answer by naming the labels in the order asked.
Reply: S, Q, P, R
(S: 5.58, Q: 6.17, P: 6.80, R: 7.22)

1. CCc1cc(C(=O)NC2c3ccc(C)cc3Oc3cccc(C)c32)c(=O)[nH]c1C(F)(F)F (stereo not shown)
2. O=C(NC1CCCc2c(-c3ccccc3)cccc21)c1ccc(C(F)(F)F)[nH]c1=O (stereo not shown)
3. Cc1ccc2c(c1)Sc1cccc(C)c1C2NC(=O)c1ccc(C(F)(F)F)[nH]c1=O (stereo not shown)
4. CCCc1cc(C(F)(F)F)[nH]c(=O)c1C(=O)NC1c2ccc(C)cc2Oc2cc(C)ccc21
Query: Ordering: ascending pIC50. Answer by naming the labels in the order asked.
Reply: 2, 3, 1, 4
(2: 5.01, 3: 5.37, 1: 6.09, 4: 6.74)

A. CNCc1cc(C(=O)NC2c3ccc(C)cc3Oc3cccc(C)c32)c(=O)[nH]c1C(F)(F)F (stereo not shown)
B. Cc1ccc(C(NC(=O)c2cc(CCO)c(C(F)(F)F)[nH]c2=O)c2ccc(C)cc2)cc1
Query: Please state the entry with greater pIC50 among A and B . Pick one and reply with its label.
Reply: B
(B: 6.06, A: 5.19)
